These entries and their values trace back to patent US12637469B2.

target.desc: JNK2α2(h) (Homo sapiens)
Construct: purchased Eurofins (KinaseProfiler service)
Sequence (P45984 whole entry): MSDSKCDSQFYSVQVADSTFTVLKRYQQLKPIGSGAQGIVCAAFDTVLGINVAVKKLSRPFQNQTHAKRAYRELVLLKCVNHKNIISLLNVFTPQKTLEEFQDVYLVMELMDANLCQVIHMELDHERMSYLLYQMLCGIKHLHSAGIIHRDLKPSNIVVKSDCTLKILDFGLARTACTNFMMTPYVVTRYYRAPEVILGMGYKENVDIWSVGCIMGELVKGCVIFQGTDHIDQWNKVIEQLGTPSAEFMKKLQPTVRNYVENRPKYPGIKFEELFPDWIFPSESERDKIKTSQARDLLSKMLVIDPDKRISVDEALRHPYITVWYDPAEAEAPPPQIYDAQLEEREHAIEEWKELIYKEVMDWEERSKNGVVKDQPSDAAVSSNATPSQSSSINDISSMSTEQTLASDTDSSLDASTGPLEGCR
test.details: Eurofins KinaseProfiler off-target kinase inhibition
Type: biochemical
reported.metric: IC50

Form entry - test system: JNK2α2(h) (Homo sapiens); read-out: IC50; compound: `c1cn2c(n1)c(Nc1ccc(N3CCOCC3)cc1)nc1ccc(-c3cn[nH]c3)cc12` > 10000 nM

* * *

target.desc: JNK1α1(h) (Homo sapiens)
Construct: purchased Eurofins (KinaseProfiler service)
Sequence (P45983 1-384 isoform P45983-2): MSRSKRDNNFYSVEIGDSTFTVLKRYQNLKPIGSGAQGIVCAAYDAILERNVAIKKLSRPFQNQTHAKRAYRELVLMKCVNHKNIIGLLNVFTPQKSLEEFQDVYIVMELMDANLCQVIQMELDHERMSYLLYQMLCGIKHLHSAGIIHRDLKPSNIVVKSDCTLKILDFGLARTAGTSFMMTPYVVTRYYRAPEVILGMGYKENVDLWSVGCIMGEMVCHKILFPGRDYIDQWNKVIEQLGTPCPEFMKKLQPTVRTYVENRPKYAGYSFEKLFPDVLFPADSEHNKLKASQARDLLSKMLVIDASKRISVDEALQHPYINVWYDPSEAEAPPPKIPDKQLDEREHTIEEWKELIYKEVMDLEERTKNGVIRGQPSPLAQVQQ
test.details: Eurofins KinaseProfiler off-target kinase inhibition
Assay type: biochemical
reported.metric: IC50
Reply with the number and its unit after it.

Form entry - test system: JNK1α1(h) (Homo sapiens); read-out: IC50; compound: `c1cn2c(n1)c(Nc1ccc(N3CCOCC3)cc1)nc1ccc(-c3cn[nH]c3)cc12` 1170 nM
